Values from patent US20260139055A1

Measured Kd accompanies every entry in the list below.
test.system: canine FcRn complex (FcRn-alpha subunit and beta-microglobulin), His-tagged, biotin labeled (canine)
experiment.description: SPR (Biacore), biotin-FcRn captured on SA surface, IgG flowed over, pH 6, 15 C
Respond numerically; units are nM and should not be typed.

Here are 2 binders together with their reported answers.
Kd for canine IgGB (65) mAb with mutation Y436N (antibody, part only; not given: variable domains of unnamed mAb, not shown: another chain or arm of the molecule) constant: ASTTAPSVFPLAPSCGSTSGSTVALACLVSGYFPEPVTVSWNSGSLTSGVHTFPSVLQSSGLYSLSSMVTVPSSRWPSETFTCNVAHPASKTKVDKPVPKRENGRVPRPPDCPKCPAPEMLGGPSVFIFPPKPKDTLLIARTPEVTCVVVDLDPEDPEVQISWFVDGKQMQTAKTQPREEQFNGTYRVVSVLPIGHQDWLKGKQFTCKVNNKALPSPIERTISKARGQAHQPSVYVLPPSREELSKNTVSLTCLIKDFFPPDIDVEWQSNGQQEPESKYRTTPPQLDEDGSYFLYSKLSVDKSRWQRGDTFICAVMHEALHNHNTQESLSHSPGK is 7.27

Kd for canine IgGB (65) mAb with mutation A426D (antibody, part only; not given: Variable domains, not shown: another chain or arm of the molecule) constant: ASTTAPSVFPLAPSCGSTSGSTVALACLVSGYFPEPVTVSWNSGSLTSGVHTFPSVLQSSGLYSLSSMVTVPSSRWPSETFTCNVAHPASKTKVDKPVPKRENGRVPRPPDCPKCPAPEMLGGPSVFIFPPKPKDTLLIARTPEVTCVVVDLDPEDPEVQISWFVDGKQMQTAKTQPREEQFNGTYRVVSVLPIGHQDWLKGKQFTCKVNNKALPSPIERTISKARGQAHQPSVYVLPPSREELSKNTVSLTCLIKDFFPPDIDVEWQSNGQQEPESKYRTTPPQLDEDGSYFLYSKLSVDKSRWQRGDTFICDVMHEALHNHYTQESLSHSPGK is 14.9

New cases:
Kd for canine IgGB (65) mAb with mutation Y436I (antibody, part only; not given: variable domains of unnamed mAb, not shown: another chain or arm of the molecule) constant: ASTTAPSVFPLAPSCGSTSGSTVALACLVSGYFPEPVTVSWNSGSLTSGVHTFPSVLQSSGLYSLSSMVTVPSSRWPSETFTCNVAHPASKTKVDKPVPKRENGRVPRPPDCPKCPAPEMLGGPSVFIFPPKPKDTLLIARTPEVTCVVVDLDPEDPEVQISWFVDGKQMQTAKTQPREEQFNGTYRVVSVLPIGHQDWLKGKQFTCKVNNKALPSPIERTISKARGQAHQPSVYVLPPSREELSKNTVSLTCLIKDFFPPDIDVEWQSNGQQEPESKYRTTPPQLDEDGSYFLYSKLSVDKSRWQRGDTFICAVMHEALHNHITQESLSHSPGK is 8.41

Kd for canine IgGB (65) mAb with mutation Q311E (antibody, part only; not given: Variable domains, not shown: another chain or arm of the molecule) constant: ASTTAPSVFPLAPSCGSTSGSTVALACLVSGYFPEPVTVSWNSGSLTSGVHTFPSVLQSSGLYSLSSMVTVPSSRWPSETFTCNVAHPASKTKVDKPVPKRENGRVPRPPDCPKCPAPEMLGGPSVFIFPPKPKDTLLIARTPEVTCVVVDLDPEDPEVQISWFVDGKQMQTAKTQPREEQFNGTYRVVSVLPIGHEDWLKGKQFTCKVNNKALPSPIERTISKARGQAHQPSVYVLPPSREELSKNTVSLTCLIKDFFPPDIDVEWQSNGQQEPESKYRTTPPQLDEDGSYFLYSKLSVDKSRWQRGDTFICAVMHEALHNHYTQESLSHSPGK is 9.39

Kd for canine IgGB (65) mAb with mutation T286R (antibody, part only; not given: Variable domains, not shown: another chain or arm of the molecule) constant: ASTTAPSVFPLAPSCGSTSGSTVALACLVSGYFPEPVTVSWNSGSLTSGVHTFPSVLQSSGLYSLSSMVTVPSSRWPSETFTCNVAHPASKTKVDKPVPKRENGRVPRPPDCPKCPAPEMLGGPSVFIFPPKPKDTLLIARTPEVTCVVVDLDPEDPEVQISWFVDGKQMQRAKTQPREEQFNGTYRVVSVLPIGHQDWLKGKQFTCKVNNKALPSPIERTISKARGQAHQPSVYVLPPSREELSKNTVSLTCLIKDFFPPDIDVEWQSNGQQEPESKYRTTPPQLDEDGSYFLYSKLSVDKSRWQRGDTFICAVMHEALHNHYTQESLSHSPGK is 4.73
